As an illustration, consider measured IC50 for molecules on Cholinesterase (Equus caballus).
Express the result in nM but write the number alone.

1) O=C1c2ccccc2-c2ncc(OCCN3CCCC3)c3cccc1c23 :: 790
2) CN1CCN(CCCOc2ccc3c4c(nccc24)-c2ccccc2C3=O)CC1 :: 5500
3) C[N+]1(CCOc2cnc3c4c(cccc24)C(=O)c2ccccc2-3)CCCCC1 :: 255

Any idea what its IC50 is? The molecule is C[N+]1(CCOc2cnc3c4c(cccc24)C(=O)c2ccccc2-3)CCCC1
302

Try the molecule C[N+](C)(C)CCOc1cnc2c3c(cccc13)C(=O)c1ccccc1-2
972

* * *

Assay: Inhibition of amyloid beta (1 to 42) aggregation assessed as inhibition of fibril formation at 10 uM by thioflavin-T fluorescent dye assay
# inhibition listing for each entry below
Express the result in % but write the number alone.

1) CCN(CC)CCC(=O)Nc1ccc2c(c1)C(=O)c1cccc3ccnc-2c13 :: 62.5
2) O=C(CN1CCCC1)Nc1ccc2c(c1)C(=O)c1cccc3ccnc-2c13 :: 45.4
3) O=C1c2ccccc2-c2ncc(OCCN3CCCC3)c3cccc1c23 :: 31.8

Below: the item to evaluate.
Any idea what its inhibition is? The compound is CN(C)CCC(=O)Nc1ccc2c(c1)C(=O)c1cccc3ccnc-2c13
69.8

* * *

Biological target: Cholinesterase (Equus caballus, UniProt P81908)
Sequence (P81908 whole entry): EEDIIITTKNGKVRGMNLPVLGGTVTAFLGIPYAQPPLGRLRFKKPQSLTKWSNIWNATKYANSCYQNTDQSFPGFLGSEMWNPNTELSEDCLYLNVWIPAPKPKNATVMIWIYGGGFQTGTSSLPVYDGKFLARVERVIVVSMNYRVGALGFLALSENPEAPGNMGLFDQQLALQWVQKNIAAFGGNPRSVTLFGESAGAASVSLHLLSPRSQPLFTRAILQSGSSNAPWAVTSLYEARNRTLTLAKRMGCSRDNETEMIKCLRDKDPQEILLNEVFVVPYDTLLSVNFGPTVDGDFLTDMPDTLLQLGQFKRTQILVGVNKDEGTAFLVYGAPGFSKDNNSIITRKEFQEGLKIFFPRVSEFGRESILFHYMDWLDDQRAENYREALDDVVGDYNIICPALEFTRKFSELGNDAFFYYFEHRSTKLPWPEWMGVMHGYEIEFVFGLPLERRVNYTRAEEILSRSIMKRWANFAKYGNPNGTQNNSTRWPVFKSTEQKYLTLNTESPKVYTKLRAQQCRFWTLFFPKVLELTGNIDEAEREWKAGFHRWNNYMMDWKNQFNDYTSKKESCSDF
resultType: pIC50
pIC50 (log units): -log10 of the concentration in mol/L.

1. CN(C)CCCNc1ccc2c3c(nccc13)-c1ccccc1C2=O :: 5.47
2. CCN(CC)CCOc1ccc2c3c(nccc13)-c1ccccc1C2=O :: 5.51
3. O=C1c2ccccc2-c2nccc3c(OCCN4CCCCC4)ccc1c23 :: 5.66
4. CN(C)CCOc1cnc2c3c(cccc13)C(=O)c1ccccc1-2 :: 5.79
5. CCN(CC)CCOc1cnc2c3c(cccc13)C(=O)c1ccccc1-2 :: 5.83
6. CN1CCN(CCOc2ccc3c4c(nccc24)-c2ccccc2C3=O)CC1 :: 5.56
7. O=C1c2ccccc2-c2nccc3c(OCCCN4CCCCC4)ccc1c23 :: 6.04
8. CC[N+](C)(CC)CCOc1cnc2c3c(cccc13)C(=O)c1ccccc1-2 :: 6.15
9. CCN(CC)CCCOc1ccc2c3c(nccc13)-c1ccccc1C2=O :: 5.57

Any idea what its pIC50 is? The molecule is O=C1c2ccccc2-c2ncc(OCCN3CCCCC3)c3cccc1c23
6.14

* * *

Experiment: Inhibition of amyloid beta (1 to 42) aggregation assessed as inhibition of fibril formation at 10 uM by thioflavin-T fluorescent dye assay
Binned inhibition; ranges: class A (below 40%), class B (40% to below 50%), class C (50% or more)

1) CCN(CC)CCCOc1ccc2c3c(nccc13)-c1ccccc1C2=O :: class A
2) CCN(CC)CCOc1cnc2c3c(cccc13)C(=O)c1ccccc1-2 :: class A
3) CC[N+](C)(CC)CCC(=O)Nc1ccc2c(c1)C(=O)c1cccc3ccnc-2c13 :: class C
4) CC[N+](C)(CC)CCOc1cnc2c3c(cccc13)C(=O)c1ccccc1-2 :: class B

Consider the additional compound presented here.
Class label required: C[N+](C)(C)CCOc1cnc2c3c(cccc13)C(=O)c1ccccc1-2
class B

* * *

As an illustration, consider measured IC50 for molecules on Acetylcholinesterase (Electrophorus electricus, UniProt O42275).
Sequence (O42275 whole entry): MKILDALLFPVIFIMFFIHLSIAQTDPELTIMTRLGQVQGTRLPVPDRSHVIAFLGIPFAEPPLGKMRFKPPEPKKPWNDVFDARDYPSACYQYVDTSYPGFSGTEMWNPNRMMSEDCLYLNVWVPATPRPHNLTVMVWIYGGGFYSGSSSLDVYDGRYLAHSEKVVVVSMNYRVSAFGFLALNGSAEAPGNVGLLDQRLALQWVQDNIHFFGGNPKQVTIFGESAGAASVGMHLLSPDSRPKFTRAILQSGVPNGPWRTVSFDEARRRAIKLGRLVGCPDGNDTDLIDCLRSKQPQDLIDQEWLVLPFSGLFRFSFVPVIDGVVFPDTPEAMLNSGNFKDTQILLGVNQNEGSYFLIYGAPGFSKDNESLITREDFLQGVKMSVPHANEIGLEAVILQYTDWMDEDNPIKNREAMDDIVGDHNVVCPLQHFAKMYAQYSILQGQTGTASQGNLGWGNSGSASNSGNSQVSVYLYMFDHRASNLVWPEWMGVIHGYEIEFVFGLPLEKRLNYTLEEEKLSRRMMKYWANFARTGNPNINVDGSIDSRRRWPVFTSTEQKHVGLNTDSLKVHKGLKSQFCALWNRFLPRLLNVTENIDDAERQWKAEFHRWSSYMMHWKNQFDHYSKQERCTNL

1. C[N+]1(CCOc2cnc3c4c(cccc24)C(=O)c2ccccc2-3)CCCCC1 :: 95 nM

Any idea what its IC50 is? The molecule is C[N+]1(CCOc2cnc3c4c(cccc24)C(=O)c2ccccc2-3)CCCC1
145 nM

Try the molecule O=C1c2ccccc2-c2nccc3c(OCCN4CCCCC4)ccc1c23
88 nM

* * *

Test: Inhibition of amyloid beta (1 to 42) aggregation assessed as inhibition of fibril formation at 10 uM by thioflavin-T fluorescent dye assay
The threshold is inclusive: inhibition of exactly 40% counts as criterion met; values below receive criterion not met.

// known answers, use as guide
1) C[N+]1(CCOc2cnc3c4c(cccc24)C(=O)c2ccccc2-3)CCCCC1 :: criterion met
2) CCN(CC)CCOc1ccc2c3c(nccc13)-c1ccccc1C2=O :: criterion not met
3) C[N+]1(CC(=O)Nc2ccc3c(c2)C(=O)c2cccc4ccnc-3c24)CCCC1 :: criterion met
4) C[N+](C)(C)CCCC(=O)Nc1ccc2c(c1)C(=O)c1cccc3ccnc-2c13 :: criterion met
5) O=C1c2ccccc2-c2ncc(OCCN3CCCCC3)c3cccc1c23 :: criterion not met
6) CN1CCN(CCCOc2ccc3c4c(nccc24)-c2ccccc2C3=O)CC1 :: criterion not met
7) C[N+](C)(C)CCC(=O)Nc1ccc2c(c1)C(=O)c1cccc3ccnc-2c13 :: criterion met
8) CN(C)CCOc1cnc2c3c(cccc13)C(=O)c1ccccc1-2 :: criterion not met

Dear colleague, could you confirm whether C[N+]1(CCOc2cnc3c4c(cccc24)C(=O)c2ccccc2-3)CCCC1 has inhibition at or above 40%?
criterion met

Try the compound CN(C)CCCC(=O)Nc1ccc2c(c1)C(=O)c1cccc3ccnc-2c13
criterion met

Try the compound COc1cc(/C=C/C(=O)CC(=O)/C=C/c2ccc(O)c(OC)c2)ccc1O
criterion not met

Try the compound CN(C)CCCNc1ccc2c3c(nccc13)-c1ccccc1C2=O
criterion met

Try the compound CN1CCN(CCOc2ccc3c4c(nccc24)-c2ccccc2C3=O)CC1
criterion met

Try the compound O=C(CCN1CCCC1)Nc1ccc2c(c1)C(=O)c1cccc3ccnc-2c13
criterion met

Try the compound C[N+]1(CCC(=O)Nc2ccc3c(c2)C(=O)c2cccc4ccnc-3c24)CCCC1
criterion met
